target: T1, Human PD-1 expressed on CHO-K1 cells (CHO-K1/hPD-1) (human, UniProt Q15116 25-288); assay: FACS blocking of biotin-labeled human PD-L1 binding to CHO-K1-hPD-1 cells
T1 construct: whole, on cells; also called CHO-K1 cells overexpressing human PD-1
T1 sequence (Q15116 25-288): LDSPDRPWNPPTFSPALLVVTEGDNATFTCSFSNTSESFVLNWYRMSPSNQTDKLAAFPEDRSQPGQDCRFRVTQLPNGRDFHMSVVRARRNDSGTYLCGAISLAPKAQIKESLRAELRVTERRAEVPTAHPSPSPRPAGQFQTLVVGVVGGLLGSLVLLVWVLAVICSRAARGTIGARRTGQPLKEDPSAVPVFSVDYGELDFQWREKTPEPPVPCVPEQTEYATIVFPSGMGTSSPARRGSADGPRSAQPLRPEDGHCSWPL
Measured Maximum inhibition rate (%) by item
Express your answer in %, writing the number without its unit.

Observe how each entry below is paired with its result.
binder | result
PR002474 (antibody, human IgG1, V domains shown, Heavy-chain-only antibody (HCAb), human IgG1 Fc; two heavy chains, no light chain; also called R4004P547D3) VH: EVQLVETGGGLIQPGGSLRLSCAASGFNVSSHYMSWVRQAPGKGLEWVSIIHSGGSTYYADSVKGRFTISRDNSKNRLYLQMNSLRADDTAVYYCARATAVAEKNGYNYPFNYWGQGTLVTVSS | 92.2
PR002475 (antibody, human IgG1, V domains shown, Heavy-chain-only antibody (HCAb), human IgG1 Fc; two heavy chains, no light chain; also called R4004P547D9) VH: EVQLVETGGGLIQPGGSLRLSCAASGFNVSSNYMSWVRQAPGKGLEWVSIIHSGGSTYYADSVKGRFTISRDNSKNTLYLQMNSLRAEDTAVYYCARAIAVAEKNGYNYPFNYWGQGTLVTVSS | 92.1
PR002476 (antibody, human IgG1, V domains shown, Heavy-chain-only antibody (HCAb), human IgG1 Fc; two heavy chains, no light chain; also called R4004P547H11) VH: EVQLVETGGGLIQPGGSLRLSCAASGFNVSSHYMSWVRQAPGKGLEWVSIIHSGGSTYYADSVKGRFTISRDNSKNRLYLQMNSLRAEDTAVYYCARATAVAEKNGYNYPFNYWGQGTLVTVSS | 91.3

// moving on: another record for Maximum inhibition rate (%)
stdin: Fill in reported Maximum inhibition rate (%) for this entry: PR002481 (antibody, human IgG1, V domains shown, Heavy-chain-only antibody (HCAb), human IgG1 Fc; two heavy chains, no light chain; also called R4004P556D1; anti-PD1 R4004P556D1 HCAb hG1) VH: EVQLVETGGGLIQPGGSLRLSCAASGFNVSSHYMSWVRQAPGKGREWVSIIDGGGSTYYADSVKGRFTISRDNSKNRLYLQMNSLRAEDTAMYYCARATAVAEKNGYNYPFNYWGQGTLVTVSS
stdout: 103
